test system: rα6/α3β4 nAChRs (Rattus norvegicus, UniProt P04757+P12392+P43143)
Sequence (P04757 whole entry, looked up): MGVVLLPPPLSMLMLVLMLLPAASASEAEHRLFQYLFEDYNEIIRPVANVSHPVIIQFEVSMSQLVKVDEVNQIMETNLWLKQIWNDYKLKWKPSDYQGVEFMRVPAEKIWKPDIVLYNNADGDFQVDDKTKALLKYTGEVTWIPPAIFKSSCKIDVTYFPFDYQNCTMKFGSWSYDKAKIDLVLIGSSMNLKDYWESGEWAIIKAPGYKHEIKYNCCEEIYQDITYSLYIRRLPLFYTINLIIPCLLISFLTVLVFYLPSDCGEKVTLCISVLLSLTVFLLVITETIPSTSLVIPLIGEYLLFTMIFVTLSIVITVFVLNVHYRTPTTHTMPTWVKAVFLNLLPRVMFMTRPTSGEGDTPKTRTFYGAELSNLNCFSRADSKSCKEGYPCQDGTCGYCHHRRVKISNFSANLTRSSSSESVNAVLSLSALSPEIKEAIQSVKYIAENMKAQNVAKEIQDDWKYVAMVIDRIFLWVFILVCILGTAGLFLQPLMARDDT
Sequence (P12392 whole entry, looked up): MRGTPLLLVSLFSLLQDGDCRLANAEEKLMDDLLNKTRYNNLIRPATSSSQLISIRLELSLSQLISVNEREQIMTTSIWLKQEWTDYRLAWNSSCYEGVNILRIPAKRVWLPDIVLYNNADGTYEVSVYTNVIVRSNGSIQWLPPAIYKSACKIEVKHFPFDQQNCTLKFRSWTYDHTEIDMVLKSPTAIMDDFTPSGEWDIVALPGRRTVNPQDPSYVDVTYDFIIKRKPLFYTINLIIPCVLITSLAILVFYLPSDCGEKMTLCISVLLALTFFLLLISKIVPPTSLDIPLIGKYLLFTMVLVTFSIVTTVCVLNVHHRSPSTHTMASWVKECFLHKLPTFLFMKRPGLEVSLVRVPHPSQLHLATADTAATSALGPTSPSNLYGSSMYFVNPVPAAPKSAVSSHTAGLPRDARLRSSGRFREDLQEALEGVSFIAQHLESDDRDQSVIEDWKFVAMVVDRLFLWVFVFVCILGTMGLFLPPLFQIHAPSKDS
Sequence (P43143 whole entry, looked up): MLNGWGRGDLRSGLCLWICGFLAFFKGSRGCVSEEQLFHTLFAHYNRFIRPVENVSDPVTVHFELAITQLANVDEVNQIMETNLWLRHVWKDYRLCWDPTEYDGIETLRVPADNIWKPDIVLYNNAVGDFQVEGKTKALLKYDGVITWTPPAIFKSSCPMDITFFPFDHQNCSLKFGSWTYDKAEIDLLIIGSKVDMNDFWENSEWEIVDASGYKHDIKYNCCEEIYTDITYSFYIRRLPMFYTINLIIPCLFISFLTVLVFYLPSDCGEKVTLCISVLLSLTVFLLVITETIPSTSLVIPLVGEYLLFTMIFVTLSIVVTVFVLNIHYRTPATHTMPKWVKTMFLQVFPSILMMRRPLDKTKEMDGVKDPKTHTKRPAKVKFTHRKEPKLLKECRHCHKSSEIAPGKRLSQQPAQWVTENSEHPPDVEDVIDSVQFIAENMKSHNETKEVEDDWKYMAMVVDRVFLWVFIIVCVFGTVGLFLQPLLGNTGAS
protocol summary: cell-based
Where a SMILES comes first, the peptide text is derived from it.
metric name: pIC50
In simple prose, pIC50 is minus the logarithm base ten of a concentration in moles per litre.

[in] Please report the recorded pIC50 for CC[C@H](C)[C@@H]1NC(=O)[C@@H]2CCCN2C(=O)[C@H](CO)NC(=O)[C@H](CCSC)NC(=O)[C@H](C)NC(=O)[C@H](C)NC(=O)[C@H](CO)NC(=O)[C@@H]2CSSC[C@H](NC(=O)CN)C(=O)N[C@@H](CSSC[C@@H](C(N)=O)NC1=O)C(=O)N[C@@H](CO)C(=O)N[C@@H](Cc1c[nH]cn1)C(=O)N1CCC[C@H]1C(=O)N[C@@H](C(C)C)C(=O)N2 [[+10A]TxID] (HELM PEPTIDE1{G.C.C.S.H.P.V.C.S.A.A.M.S.P.I.C.[am]}$PEPTIDE1,PEPTIDE1,2:R3-8:R3|PEPTIDE1,PEPTIDE1,3:R3-16:R3$$$V2.0) .
[out] 5.95

---

test system: rα3β4 nAChRs (Rattus norvegicus, UniProt P04757+P12392)
protocol summary: cell-based
Where a SMILES comes first, the peptide text is derived from it.
metric name: pIC50
In simple prose, pIC50 is minus the logarithm base ten of a concentration in moles per litre.

[in] Please report the recorded pIC50 for CC[C@H](C)[C@@H]1NC(=O)[C@@H]2CCCN2C(=O)[C@H](CO)NC(=O)[C@H](CCSC)NC(=O)[C@H](C)NC(=O)[C@H](CO)NC(=O)[C@@H]2CSSC[C@H](NC(=O)CN)C(=O)N[C@@H](CSSC[C@@H](C(N)=O)NC(=O)[C@H](C)NC1=O)C(=O)N[C@@H](CO)C(=O)N[C@@H](Cc1c[nH]cn1)C(=O)N1CCC[C@H]1C(=O)N[C@@H](C(C)C)C(=O)N2 [[+15A]TxID] (HELM PEPTIDE1{G.C.C.S.H.P.V.C.S.A.M.S.P.I.A.C.[am]}$PEPTIDE1,PEPTIDE1,2:R3-8:R3|PEPTIDE1,PEPTIDE1,3:R3-16:R3$$$V2.0) .
[out] 8.52

---

test system: rα6/α3β4 nAChRs (Rattus norvegicus, UniProt P04757+P12392+P43143)
protocol summary: cell-based
Where a SMILES comes first, the peptide text is derived from it.
metric name: pIC50
In simple prose, pIC50 is minus the logarithm base ten of a concentration in moles per litre.

[in] Please report the recorded pIC50 for CC[C@H](C)[C@@H]1NC(=O)[C@@H]2CCCN2C(=O)[C@H](CO)NC(=O)[C@H](CCSC)NC(=O)[C@H](C)NC(=O)[C@H](CO)NC(=O)[C@@H]2CSSC[C@H](NC(=O)CN)C(=O)N[C@@H](CSSC[C@@H](C(N)=O)NC(=O)[C@H](C)NC1=O)C(=O)N[C@@H](CO)C(=O)N[C@@H](Cc1c[nH]cn1)C(=O)N1CCC[C@H]1C(=O)N[C@@H](C(C)C)C(=O)N2 [[+15A]TxID] (HELM PEPTIDE1{G.C.C.S.H.P.V.C.S.A.M.S.P.I.A.C.[am]}$PEPTIDE1,PEPTIDE1,2:R3-8:R3|PEPTIDE1,PEPTIDE1,3:R3-16:R3$$$V2.0) .
[out] 7.43

---

test system: rα6/α3β4 nAChRs (Rattus norvegicus, UniProt P04757+P12392+P43143)
protocol summary: cell-based
Where a SMILES comes first, the peptide text is derived from it.
metric name: pIC50
In simple prose, pIC50 is minus the logarithm base ten of a concentration in moles per litre.

[in] Please report the recorded pIC50 for CC[C@H](C)[C@@H]1NC(=O)[C@H](C)NC(=O)[C@@H]2CCCN2C(=O)[C@H](CO)NC(=O)[C@H](CCSC)NC(=O)[C@H](C)NC(=O)[C@H](CO)NC(=O)[C@@H]2CSSC[C@H](NC(=O)CN)C(=O)N[C@@H](CSSC[C@@H](C(N)=O)NC1=O)C(=O)N[C@@H](CO)C(=O)N[C@@H](Cc1c[nH]cn1)C(=O)N1CCC[C@H]1C(=O)N[C@@H](C(C)C)C(=O)N2 [[+14A]TxID] (HELM PEPTIDE1{G.C.C.S.H.P.V.C.S.A.M.S.P.A.I.C.[am]}$PEPTIDE1,PEPTIDE1,2:R3-8:R3|PEPTIDE1,PEPTIDE1,3:R3-16:R3$$$V2.0) .
[out] 6.43

[in] Please report the recorded pIC50 for CC[C@H](C)[C@@H]1NC(=O)[C@@H]2CCCN2C(=O)[C@H](C)NC(=O)[C@H](CO)NC(=O)[C@H](CCSC)NC(=O)[C@H](C)NC(=O)[C@H](CO)NC(=O)[C@@H]2CSSC[C@H](NC(=O)CN)C(=O)N[C@@H](CSSC[C@@H](C(N)=O)NC1=O)C(=O)N[C@@H](CO)C(=O)N[C@@H](Cc1c[nH]cn1)C(=O)N1CCC[C@H]1C(=O)N[C@@H](C(C)C)C(=O)N2 [[+13A]TxID] (HELM PEPTIDE1{G.C.C.S.H.P.V.C.S.A.M.S.A.P.I.C.[am]}$PEPTIDE1,PEPTIDE1,2:R3-8:R3|PEPTIDE1,PEPTIDE1,3:R3-16:R3$$$V2.0) .
[out] 7.19

[in] Please report the recorded pIC50 for CC[C@H](C)[C@@H]1NC(=O)[C@@H]2CCCN2C(=O)[C@H](CO)NC(=O)[C@H](C)NC(=O)[C@H](CCSC)NC(=O)[C@H](C)NC(=O)[C@H](CO)NC(=O)[C@@H]2CSSC[C@H](NC(=O)CN)C(=O)N[C@@H](CSSC[C@@H](C(N)=O)NC1=O)C(=O)N[C@@H](CO)C(=O)N[C@@H](Cc1c[nH]cn1)C(=O)N1CCC[C@H]1C(=O)N[C@@H](C(C)C)C(=O)N2 [[+12A]TxID] (HELM PEPTIDE1{G.C.C.S.H.P.V.C.S.A.M.A.S.P.I.C.[am]}$PEPTIDE1,PEPTIDE1,2:R3-8:R3|PEPTIDE1,PEPTIDE1,3:R3-16:R3$$$V2.0) .
[out] 7.47

Data origin, for the record: paper PMC10222858
